- assay-method-text: Neurological toxicity, rotorod test, mice (ip)
- Format: in vivo
- test-parameters: male, CF No 1, mouse, in vivo, rotorod test, read-out: Mice (ip) Tox, TD50
Exercise: for every item that follows, state its recorded TD50.

Quick one: TD50 for CC(=O)NC(C(=O)NCc1ccc(OCc2cccc(F)c2)cc1)c1ccccn1 (racemic) [(R, S)-9] ?
210 mg/kg

Quick one: TD50 for COC[C@@H](NC(C)=O)C(=O)NCc1ccc(OCc2ccc(F)cc2)cc1 [(R)-22] ?
30 to 100 mg/kg

Quick one: TD50 for COC[C@@H](NC(C)=O)C(=O)NCc1ccc(OCc2ccccc2)cc1 [(R)-20] ?
22 mg/kg

Quick one: TD50 for COC[C@@H](NC(C)=O)C(=O)NCc1ccc(OCc2ccccc2F)cc1 [(R)-21] ?
37 mg/kg
